# MEASURED_ON: µMax20 (UniProt P61244)
# Sequence (P61244 whole entry): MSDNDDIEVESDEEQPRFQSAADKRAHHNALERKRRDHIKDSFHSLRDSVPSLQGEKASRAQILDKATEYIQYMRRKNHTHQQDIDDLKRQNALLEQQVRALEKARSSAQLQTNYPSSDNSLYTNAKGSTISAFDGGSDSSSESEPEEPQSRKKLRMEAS
# EXPERIMENTAL_PROTOCOL: BLI
# TEST_CONDITIONS: EMSA: 10 mM MES pH 6.0, 150 mM KCl, 1 mM MgCl2, 10% glycerol, room temperature, 1 uM DNA; BLI: global 1:1 fit, buffer not in material
OBSERVABLE: Kd (nM)
Give bare numbers, in nM.

Quickly give me recorded Kd for CCGGCTGACACGTGGTATTAAT (double strand) [E-box DNA probe]
4.38
